Where do these numbers come from? They come from patent US20250074869A1.

LD50 at 14 days overview
Test: Acute toxicity study in animals (oral LD50)
Conditions: mouse, in vivo, male ICR mice, intragastric administration, observed 14 days, hydrochloride salts
Experimental: Male ICR mice weighed 23±2 g, clean grade, were selected. The route of administration was intragastric (ig) administration, which is consistent with the intended oral route for clinical use. […] Study procedures: 160 mice were randomized into 8 groups of 20 mice by body weight. […] The daily dose of each group was calculated; the control group received equal volumes of water and was subjected to an acute toxicity study for observation and the body weight of the mice was recorded daily for 14 days.
Structures can show the parent of a compound that is named as a salt.
measurement kind: LD50 at 14 days (mg/kg)

{"columns": ["compound", "result units", "observed value"],
 "data": [
  ["CCCN(CCC)CCC(=O)Nc1cc(/C=C\\c2cc(OC)c(OC)c(OC)c2)ccc1OC(F)F [Hydrochloride of Example 8]", "mg/kg", 1100],
  ["CCCN(CCC)CCC(=O)Nc1cc(/C=C\\c2cc(OC)c(OC)c(OC)c2)ccc1OCC(F)(F)F [Hydrochloride of Example 7]", "mg/kg", 1200],
  ["CCCN(CCC)CCC(=O)Nc1cc(/C=C\\c2cc(OC)c(OC)c(OC)c2)ccc1OC [Hydrochloride of Example 3]", "mg/kg", 1000],
  ["CCCCN(CCCC)CCC(=O)Nc1cc(/C=C\\c2cc(OC)c(OC)c(OC)c2)ccc1OCC [Hydrochloride of Example 5]", "mg/kg", 1200],
  ["CCOc1ccc(/C=C\\c2cc(OC)c(OC)c(OC)c2)cc1NC(=O)CCN(CCO)CCO [Hydrochloride of Example 11]", "mg/kg", 1100],
  ["CCOc1ccc(/C=C\\c2cc(OC)c(OC)c(OC)c2)cc1NC(=O)CCN(CC)CC [Hydrochloride of Example 4]", "mg/kg", 1100],
  ["CCCN(CCC)CCC(=O)Nc1cc(/C=C\\c2cc(OC)c(OC)c(OC)c2)ccc1OCC [Hydrochloride of Example 1]", "mg/kg", 1200],
  ["CCOc1ccc(/C=C\\c2cc(OC)c(OC)c(OC)c2)cc1NC(=O)CCNCC(OC)OC [Hydrochloride of Example 14]", "mg/kg", 1000],
  ["CCCCN(CCCC)CCC(=O)Nc1cc(/C=C\\c2cc(OC)c(OC)c(OC)c2)ccc1OCC(F)(F)F [Hydrochloride of Example 9]", "mg/kg", 1000]
]}
